- ASSAY_TARGET: human MGL from HeLa cells (Homo sapiens (Human))
- Sequence (Q99685 whole entry): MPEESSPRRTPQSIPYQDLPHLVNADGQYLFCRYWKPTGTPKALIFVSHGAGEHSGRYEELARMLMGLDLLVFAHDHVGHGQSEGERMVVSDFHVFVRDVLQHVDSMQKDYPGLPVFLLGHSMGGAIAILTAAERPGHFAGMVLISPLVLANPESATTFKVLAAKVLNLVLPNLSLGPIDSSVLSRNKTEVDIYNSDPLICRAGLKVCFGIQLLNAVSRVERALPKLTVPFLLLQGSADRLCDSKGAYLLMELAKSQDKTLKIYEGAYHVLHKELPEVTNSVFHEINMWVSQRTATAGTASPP
- PROTOCOL_SUMMARY: MGL in vitro activity assay ([glycerol-1,3-3H]-oleoyl glycerol hydrolysis, activated carbon filtration)
- EXPERIMENTAL_PARAMETERS: 300 nM [Glycerol-1,3-3H]-oleoyl glycerol, one hour
MEASURED_ATTRIBUTE: IC50 (nM)

compound="CC(C)(C)n1ccc(C2CCC3(CC2)CN(C(=O)[C@H]2C[C@@](C)(O)C2)C3)n1 [Example 379]" observed=56
compound="Cc1cc(C2CCC3(CC2)CN(C(=O)[C@H]2C[C@@](C)(O)C2)C3)ccc1F [Example 353]" observed=18
compound="Cc1cc(Cl)ccc1OC1CCC2(CC1)CN(C(=O)[C@H]1C[C@@](C)(O)C1)C2 [Example 412]" observed=1.4
compound="COc1cc(C)cc(C2CCC3(C2)CN(C(=O)[C@H]2C[C@@](C)(O)C2)C3)c1 (mixture of isomers) [Example 80]" observed=104
compound="Cc1ccc(OC2CCC3(CC2)CN(C(=O)[C@H]2C[C@@](C)(O)C2)C3)nc1C(F)(F)F [Example 451]" observed=8.2
compound="C[C@]1(O)C[C@@H](C(=O)N2CC3(CC(Cc4cccnc4)C3)C2)C1 [Example 168]" observed=1370
compound="Cc1cc(Cl)cnc1OC1CCC2(CC1)CN(C(=O)[C@H]1C[C@@](C)(O)C1)C2 [Example 437]" observed=3.7
compound="CC(C)(C)c1ccnc(C2CCC3(CC2)CN(C(=O)[C@H]2C[C@@](C)(O)C2)C3)n1 [Example 378]" observed=37
